Reference source for all entries: patent US11623924B2

List of pEC50 values.
# target_desc: NL20 human bronchial epithelial cells expressing human Z-AAT (Homo sapiens, UniProt P01009, E366K)
# Construct: expressed in transfected cells; host or cells: NL20 human bronchial epithelial cells (NL20-SI line, doxycycline added)
# Sequence (P01009 25-418 E366K): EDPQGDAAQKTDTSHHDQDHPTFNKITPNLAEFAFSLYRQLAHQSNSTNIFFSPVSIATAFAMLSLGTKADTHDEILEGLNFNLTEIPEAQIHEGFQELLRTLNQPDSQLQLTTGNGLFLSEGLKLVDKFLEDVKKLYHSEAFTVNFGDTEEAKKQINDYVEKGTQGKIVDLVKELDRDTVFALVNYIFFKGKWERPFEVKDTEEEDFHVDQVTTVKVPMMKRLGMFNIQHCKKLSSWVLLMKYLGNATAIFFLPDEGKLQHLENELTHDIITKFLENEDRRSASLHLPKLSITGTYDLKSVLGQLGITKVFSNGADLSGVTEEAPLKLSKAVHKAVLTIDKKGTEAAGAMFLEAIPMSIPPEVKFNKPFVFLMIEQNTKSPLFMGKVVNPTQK
# test_details: AAT Function Assay (MSD Assay NL20-SI Cell Line)
# Type: cell-based
# experimental_setup: functionally active AAT (AAT-hNE complex) in supernatant of NL20 cells expressing human Z-AAT; read-out: NL20 Func. (EC50)
pEC50: −log10 of the molar value.

In [3]: df
Out[3]:
                                   molecule  endpoint_label  assay_result
0  Cc1cc(-n2c(C(C)C)c(C3CC4(CC(C(=O)O)C4)C3)c3cc4[nH]ncc4cc32)ccc1F (racemic) [Compound 24]           pEC50        > 5.94

Requested field: pEC50. Item: O=C(O)CCc1c(C2CCOCC2)n(-c2ccc(F)cc2)c2cc3cn[nH]c3cc12 < 5.52

Query CC(=O)NCCCc1c(C2CCOCC2)n(-c2ccc(F)cc2)c2cc3cn[nH]c3cc12 next < 5.52

Query C[C@]1(C(N)=O)C[C@H](c2c(C3CCOCC3)n(-c3ccc(F)cc3)c3cc4cn[nH]c4cc32)C1 next 5.52 to 5.94

Query CC(=O)N1CCC(Cc2c(C3CCOCC3)n(-c3ccc(F)cc3)c3cc4cn[nH]c4cc23)C1 (stereo in doubt) next < 5.52

Query Cc1cc(-n2c(C(C)C)c(C3CC4(CC(C(=O)O)C4)C3)c3cc4[nH]nc(C)c4cc32)ccc1F (single isomer, unassigned) [Compound 58] next 5.52 to 5.94

Query COCC(C)(C)c1c(CCCNC(N)=O)c2cc3[nH]ncc3cc2n1-c1ccc(F)cc1 next 5.52 to 5.94

Query CC(C)c1c(CCC(=O)O)c2cc3[nH]ncc3cc2n1-c1ccc(F)c(F)c1 next 5.52 to 5.94

* * *

# target_desc: NL20 human bronchial epithelial cells expressing human Z-AAT (Homo sapiens, UniProt P01009, E366K)
# Construct: expressed in transfected cells; host or cells: NL20 human bronchial epithelial cells (NL20-SI line, doxycycline added)
# test_details: AAT Function Assay (MSD Assay NL20-SI Cell Line)
# Format: cell-based
# experimental_setup: functionally active AAT (AAT-hNE complex) in supernatant of NL20 cells expressing human Z-AAT; read-out: NL20 Func. (EC50)
pEC50: −log10 of the molar value.
List of pEC50 values.

Reference set, count: 3
                                   compound  endpoint_label  assay_result
0  O=C(O)[C@H]1CC[C@H](Cc2c(C3CCOCC3)n(-c3ccc(F)c(Cl)c3)c3cc4cn[nH]c4cc23)CC1           pEC50  5.52 to 5.94
1  N#CCCc1c(C2CCOCC2)n(-c2ccc(F)cc2)c2cc3cn[nH]c3cc12           pEC50  5.52 to 5.94
2  [H][C@]1(C(=O)O)C[C@]2(C1)C[C@]([H])(c1c(C3CCOCC3)n(-c3ccc(F)cc3)c3cc4cn[nH]c4cc31)C2 (single isomer, unassigned)           pEC50  5.52 to 5.94

# context switch: different compound, same pEC50
Requested field: pEC50. Item: CCOC(=O)c1c(C(C)C)n(-c2ccc(F)c(C)c2)c2cc3cn[nH]c3cc12 < 5.52

* * *

# target_desc: NL20 human bronchial epithelial cells expressing human Z-AAT (Homo sapiens, UniProt P01009, E366K)
# Construct: expressed in transfected cells; host or cells: NL20 human bronchial epithelial cells (NL20-SI line, doxycycline added)
# test_details: AAT Function Assay (MSD Assay NL20-SI Cell Line)
# Format: cell-based
# experimental_setup: functionally active AAT (AAT-hNE complex) in supernatant of NL20 cells expressing human Z-AAT; read-out: NL20 Func. (EC50)
# Description: A. AAT Function Assay (MSD Assay NL20-SI Cell Line) Alpha-1 antitrypsin (AAT) is a SERPIN (serine protease inhibitor) that inactivates enzymes by binding to them covalently. This assay measured the amount of functionally active AAT in a sample in the presence of the disclosed compounds 1-215 by determining the ability of AAT to form an irreversible complex with human neutrophil Elastase (hNE). […]
pEC50: −log10 of the molar value.
endpoint_label: pEC50

Requested field: pEC50. Item: Cc1cc(F)ccc1-n1c(C2CCOCC2)c(CC2(C(=O)O)CC2)c2cc3[nH]ncc3cc21 5.52 to 5.94

Query Cc1cc(-n2c(C3CCOCC3)c([C@H]3C[C@@H](CC(=O)O)C3)c3cc4[nH]ncc4cc32)ccc1F (single isomer, unassigned) next 5.52 to 5.94

Query [2H]C(C(=O)O)C([2H])([2H])c1c(C(C)C)n(-c2ccc(F)cc2)c2cc3cn[nH]c3cc12 (centres unmarked) next 5.52 to 5.94

Query CC(=O)N1CCC(Cc2c(C3CCOCC3)n(-c3ccc(F)cc3)c3cc4cn[nH]c4cc23)CC1 next 5.52 to 5.94

Query CS(=O)(=O)CCc1c(C2CCOCC2)n(-c2ccc(F)cc2)c2cc3cn[nH]c3cc12 next 5.52 to 5.94

Query Cc1cc(-n2c(C3CCOCC3)c(CC3CC(C(=O)O)C3)c3cc4[nH]ncc4cc32)ccc1F (mixture of isomers) next > 5.94

* * *

# target_desc: NL20 human bronchial epithelial cells expressing human Z-AAT (Homo sapiens, UniProt P01009, E366K)
# Construct: expressed in transfected cells; host or cells: NL20 human bronchial epithelial cells (NL20-SI line, doxycycline added)
# test_details: AAT Function Assay (MSD Assay NL20-SI Cell Line)
# Format: cell-based
# experimental_setup: functionally active AAT (AAT-hNE complex) in supernatant of NL20 cells expressing human Z-AAT; read-out: NL20 Func. (EC50)
endpoint_label: EC50

                                   compound  assay_result
0  [2H]c1c([2H])c(-n2c(C(C)C)c(CCC(=O)O)c3cc4[nH]ncc4cc32)c([2H])c([2H])c1F [Compound 188]  1.16 to 3 µM

Requested field: EC50. Item: CCCn1c(C2CCOCC2)c(C2CC3(CC(C(=O)O)C3)C2)c2cc3[nH]ncc3cc21 (centres unmarked) [Compound 196] > 3 µM

Query Cc1cc(-n2c(C3CCOCC3)c([C@H]3C[C@H](C(=O)O)C3)c3cc4[nH]ncc4cc32)ccc1F [Compound 100] next 1.16 to 3 µM

Query NC(=O)[C@H]1C[C@H](c2c(C3CCOCC3)n(-c3ccc(F)cc3)c3cc4cn[nH]c4cc32)C1 [Compound 161] next > 3 µM

Query CC(C)c1c(CCC(=O)O)c2cc3[nH]ncc3cc2n1-c1ccc(F)cc1 [Compound 32] next 1.16 to 3 µM

Query O=C(OCc1ccccc1)N1CCCC(Cc2c(C3CCOCC3)n(-c3ccc(F)cc3)c3cc4cn[nH]c4cc23)C1 (centres unmarked) [Compound 154] next 1.16 to 3 µM

Query CC(C)c1c(CCC(=O)O)c2cc3nn[nH]c3cc2n1-c1ccc(F)cc1 [Compound 214] next > 3 µM

Query O=C(O)[C@H]1C[C@H](Cc2c(C3CCOCC3)n(-c3ccc(F)cc3)c3cc4cn[nH]c4cc23)C1 [Compound 118] next > 3 µM
